The molecules listed here are annotated with their chromatographic logP.
Test: Log P measurement by HPLC on reversed phase columns (EEC directive 79/831 Annex V.A8)
Format: physicochemical
Conditions: reversed phase HPLC column, LC-UV, acidic range, 0.1% formic acid in water and acetonitrile as eluent (linear gradient 10% to 95% acetonitrile); read-out: LogP [a]
Output: the number by itself.

Some molecules with recorded chromatographic logP:
{"molecule": "C=C(c1ccccc1)c1cc(Cl)c(N=CN(C)CC)cc1C", "measurement": 1.66}
{"molecule": "CCN(C)C=Nc1cc(C)c(C2(c3ccccc3)CC2(Cl)Cl)cc1C (centres unmarked)", "measurement": 1.83}
{"molecule": "CCN(C)C=Nc1cc(C)c(C2(c3ccccc3)CC2)cc1C", "measurement": 1.85}
{"molecule": "CCN(C)C=Nc1cc(C)c(C(C)c2ccccc2)cc1Cl (centres unmarked)", "measurement": 1.61}

Next item in the queue.
Looking up CCN(C)C=Nc1cc(C)c(Cc2ccccc2Cl)cc1Cl , I found its chromatographic logP recorded as 1.63
